Reference for the values: ChEMBL document CHEMBL5291721

Recorded AC50 values (Vasopressin V2 receptor (Homo sapiens)) are given below.

Examples from the recorded data:
# compound, attributeMeasured, valueMeasured
rows = [
    ("NS(=O)(=O)Cc1noc2ccccc12 [ZONISAMIDE]", "AC50", "> 10 µM"),
    ("C=CCN1C[C@H](C(=O)N(CCCN(C)C)C(=O)NCC)C[C@@H]2c3cccc4[nH]cc(c34)C[C@H]21 [CABERGOLINE]", "AC50", "> 10 µM"),
    ("CCCC1O[C@@H]2C[C@H]3[C@@H]4CCC5=CC(=O)C=C[C@]5(C)[C@H]4[C@@H](O)C[C@]3(C)[C@]2(C(=O)CO)O1 (some centres not stated) [BUDESONIDE]", "AC50", "> 10 µM"),
    ("C#C[C@]1(O)CC[C@H]2[C@@H]3CCc4cc(OC5CCCC5)ccc4[C@H]3CC[C@@]21C [QUINESTROL]", "AC50", "> 10 µM"),
    ("C#C[C@]1(O)CC[C@H]2[C@@H]3[C@H](C)CC4=C(CCC(=O)C4)[C@H]3CC[C@@]21C [TIBOLONE]", "AC50", "> 30 µM"),
    ("Nc1ccn([C@H]2CC[C@@H](CO)O2)c(=O)n1 [ZALCITABINE]", "AC50", "> 10 µM"),
]

# input Determine from records and report AC50 for Cc1cc(O)c(C(=O)N[C@@H](C(=O)N[C@@H]2C(=O)N3C(C(=O)O)=C(CSc4nnnn4C)CS[C@H]23)c2ccc(O)cc2)cn1 [CEFPIRAMIDE]
# output > 30 µM

###

AC50: recorded values
# testedTarget: Sodium-dependent dopamine transporter (Homo sapiens, UniProt Q01959); also: assay procedure not described here
# Sequence (Q01959 whole entry): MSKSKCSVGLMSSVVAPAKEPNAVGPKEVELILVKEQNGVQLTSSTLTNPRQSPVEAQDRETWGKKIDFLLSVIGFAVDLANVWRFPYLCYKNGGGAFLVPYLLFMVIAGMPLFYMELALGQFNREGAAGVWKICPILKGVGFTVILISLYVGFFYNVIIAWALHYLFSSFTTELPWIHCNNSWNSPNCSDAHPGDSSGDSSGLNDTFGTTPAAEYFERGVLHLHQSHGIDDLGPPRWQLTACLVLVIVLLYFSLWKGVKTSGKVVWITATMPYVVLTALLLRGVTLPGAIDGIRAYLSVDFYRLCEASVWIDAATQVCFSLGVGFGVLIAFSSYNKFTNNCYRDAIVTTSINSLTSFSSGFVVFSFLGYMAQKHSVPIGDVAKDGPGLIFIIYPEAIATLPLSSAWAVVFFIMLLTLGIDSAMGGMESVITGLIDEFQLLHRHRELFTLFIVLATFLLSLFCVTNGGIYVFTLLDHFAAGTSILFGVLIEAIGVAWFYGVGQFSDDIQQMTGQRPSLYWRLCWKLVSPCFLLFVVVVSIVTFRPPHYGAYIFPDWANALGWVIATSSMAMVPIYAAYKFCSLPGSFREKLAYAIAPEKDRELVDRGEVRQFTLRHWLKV

Examples from the recorded data:
# molecule, AC50
measured = [
    ("C=CCc1ccccc1OCC(O)CNC(C)C (stereo unspecified)", "> 30 µM"),
    ("Cn1nnc2c(C(N)=O)ncn2c1=O [TEMOZOLOMIDE]", "> 30 µM"),
    ("CCOC(=O)[C@H](CCc1ccccc1)N[C@@H](C)C(=O)N1C(=O)N(C)C[C@H]1C(=O)O", "> 30 µM"),
]

Read the next record carefully.
# input Fill in: AC50 on Sodium-dependent dopamine transporter (Homo sapiens, UniProt Q01959), entry CC(C)C(=O)c1c(C(C)C)nn2ccccc12
# output > 30 µM

###

# testedTarget: cGMP-inhibited 3',5'-cyclic phosphodiesterase 3A (Homo sapiens); also: assay procedure not described here
# Sequence (Q14432 whole entry): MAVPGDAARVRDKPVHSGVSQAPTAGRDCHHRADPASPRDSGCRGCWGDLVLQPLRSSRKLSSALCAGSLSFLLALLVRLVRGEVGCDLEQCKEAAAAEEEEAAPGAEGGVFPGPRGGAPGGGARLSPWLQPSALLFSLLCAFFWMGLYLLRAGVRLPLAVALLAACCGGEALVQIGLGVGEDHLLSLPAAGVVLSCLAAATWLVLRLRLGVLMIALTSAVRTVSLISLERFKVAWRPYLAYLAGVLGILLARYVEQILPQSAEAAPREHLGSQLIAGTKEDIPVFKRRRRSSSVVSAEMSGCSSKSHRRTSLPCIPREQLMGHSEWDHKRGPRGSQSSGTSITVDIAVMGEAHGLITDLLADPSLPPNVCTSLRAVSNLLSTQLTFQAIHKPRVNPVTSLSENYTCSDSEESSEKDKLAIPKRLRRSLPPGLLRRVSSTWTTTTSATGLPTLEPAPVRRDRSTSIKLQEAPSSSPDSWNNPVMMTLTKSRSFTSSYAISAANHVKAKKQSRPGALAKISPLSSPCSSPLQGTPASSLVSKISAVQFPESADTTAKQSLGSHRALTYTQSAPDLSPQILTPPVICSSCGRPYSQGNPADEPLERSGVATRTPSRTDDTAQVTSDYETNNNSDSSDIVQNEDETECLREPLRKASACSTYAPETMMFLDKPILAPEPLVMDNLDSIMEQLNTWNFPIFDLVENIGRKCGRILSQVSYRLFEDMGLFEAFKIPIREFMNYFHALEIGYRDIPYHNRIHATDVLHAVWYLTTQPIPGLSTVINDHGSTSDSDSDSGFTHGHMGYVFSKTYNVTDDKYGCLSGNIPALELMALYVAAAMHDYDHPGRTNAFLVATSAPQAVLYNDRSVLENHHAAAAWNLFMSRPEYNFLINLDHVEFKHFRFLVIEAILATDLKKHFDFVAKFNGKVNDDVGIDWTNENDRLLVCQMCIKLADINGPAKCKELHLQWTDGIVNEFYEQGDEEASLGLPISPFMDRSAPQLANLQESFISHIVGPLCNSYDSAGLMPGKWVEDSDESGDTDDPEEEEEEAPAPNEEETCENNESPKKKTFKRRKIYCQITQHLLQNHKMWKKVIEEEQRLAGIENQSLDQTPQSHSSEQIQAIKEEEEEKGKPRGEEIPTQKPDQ
# Format: functional
attributeMeasured: AC50

Examples from the recorded data:
# molecule, testedTarget, valueMeasured
rows = [
    ("O=C(Cc1ccc(-c2ccccc2)cc1)Nc1ccccn1 [DIFENPIRAMIDE]", "cGMP-inhibited 3',5'-cyclic phosphodiesterase 3A (Homo sapiens)", "> 30 µM"),
    ("O=C(O)C1=C(CSc2nnnn2CS(=O)(=O)O)CS[C@@H]2[C@H](NC(=O)[C@H](O)c3ccccc3)C(=O)N12", "cGMP-inhibited 3',5'-cyclic phosphodiesterase 3A (Homo sapiens)", "> 30 µM"),
    ("CN(C)CCC(c1ccc(Cl)cc1)c1ccccn1 (stereo not given)", "cGMP-inhibited 3',5'-cyclic phosphodiesterase 3A (Homo sapiens)", "> 10 µM"),
    ("CCOc1ccccc1OCC1CNCCO1 (stereo not given)", "cGMP-inhibited 3',5'-cyclic phosphodiesterase 3A (Homo sapiens)", "> 30 µM"),
]

Read the next record carefully.
# input Determine from records and report AC50 for C#C[C@]1(O)CC[C@H]2[C@@H]3CCc4cc(OC5CCCC5)ccc4[C@H]3CC[C@@]21C
# output > 30 µM
